Ki, Apoptosis regulator Bcl-2 (Homo sapiens): measured values

{"SMILES TEXT": "CN(C)CC[C@H](CSc1ccccc1)Nc1ccc(S(=O)(=O)NC(=O)c2ccc(N3CCN(Cc4ccccc4-c4ccc(Cl)cc4)CC3)cc2)cc1C(=O)C(F)(F)F", "Ki": "< 1 nM"}
{"SMILES TEXT": "O=C(NS(=O)(=O)c1ccc(NCCSc2ccccc2)c([N+](=O)[O-])c1)c1ccc(N2CCN(Cc3ccccc3-c3ccc(Cl)cc3)CC2)cc1", "Ki": "< 1 nM"}
{"SMILES TEXT": "CN(C)CC[C@H](CSc1ccccc1)Nc1ccc(S(=O)(=O)NC(=O)c2ccc(N3CCN(Cc4ccccc4-c4ccc(Cl)cc4)CC3)cc2)cc1", "Ki": "< 1 nM"}
